- System: Acinetobacter baumannii T6474
- test name: Bacterial growth minimal inhibitory concentration (broth microdilution, CLSI M7-A7)
- Type: cell-based
- experimental context: Acinetobacter baumannii, T6474; cation-adjusted Mueller-Hinton Broth, microdilution; multiply-resistant (quinolone-resistant) strain; read-out: MIC for A. Baumannii T6474

compound	unit spec	MIC
C[C@@](CCn1cc2cc(C#CC#C[C@H]3C[C@@H]3CO)ccc2n1)(C(=O)NO)S(C)(=O)=O.O=CO [Example 36]	µg/mL	2
C[C@@](CCn1cc2cc(C#Cc3ccc(C4(N)CC4)cc3)ccc2n1)(C(=O)NO)S(C)(=O)=O.O=CO [Example 79]	µg/mL	2
CN(C)c1ccc(-c2ccc3nn(CC[C@](C)(C(=O)NO)S(C)(=O)=O)cc3c2)cc1 [Example 11]	µg/mL	2
